# protocolNotes: Stability in transdermal therapeutic system (10% in BioPSA Hex 7-4302), extraction and HPLC
# Assay type: physicochemical
# details: TTS, 9 months, 25° C./60% relative humidity

[
  {
    "compound": "CCOC(=O)[C@H](CCc1ccccc1)N[C@H]1CCCN2CCC[C@@H](C(=O)O)N2C1=O [cilazapril, reference compound]",
    "assay [%] [%]": 97.0
  },
  {
    "compound": "CCOC(=O)[C@H](CCc1ccccc1)N[C@H]1CCCN2CCC[C@@H](C(=O)OCCN3CCOCC3)N2C1=O",
    "assay [%] [%]": 94.7
  },
  {
    "compound": "CCOC(=O)[C@H](CCc1ccccc1)NC1CCCN2CCC[C@@H](C(=O)OC(C)OC(=O)OC3CCCCC3)N2C1=O (stereo partly shown)",
    "assay [%] [%]": 98.3
  },
  {
    "compound": "CCOC(=O)OC(C)OC(=O)[C@@H]1CCCN2CCCC(N[C@@H](CCc3ccccc3)C(=O)OCC)C(=O)N12 (stereo partly shown)",
    "assay [%] [%]": 98.0
  }
]

----------
Below, each entry is listed with its recorded f50% (h), time by which 50% of total cilazaprilate has been formed.
# protocolNotes: in vitro
# Format: in vitro ADME
# details: human
metric: f50% (h), time by which 50% of total cilazaprilate has been formed

[
  {
    "compound": "CCOC(=O)[C@H](CCc1ccccc1)NC1CCCN2CCC[C@@H](C(=O)OC(C)OC(C)=O)N2C1=O (stereo partly shown)",
    "recordedResult": 91.2
  },
  {
    "compound": "CCOC(=O)[C@H](CCc1ccccc1)N[C@H]1CCCN2CCC[C@@H](C(=O)OCCN3CCOCC3)N2C1=O",
    "recordedResult": 10.8
  },
  {
    "compound": "CCOC(=O)[C@H](CCc1ccccc1)NC1CCCN2CCC[C@@H](C(=O)OC(C)OC(=O)OC3CCCCC3)N2C1=O (stereo partly shown)",
    "recordedResult": 228
  },
  {
    "compound": "CCOC(=O)[C@H](CCc1ccccc1)NC1CCCN2CCC[C@@H](C(=O)OC(C)OC(=O)C(C)(C)C)N2C1=O (stereo partly shown)",
    "recordedResult": 33.6
  },
  {
    "compound": "CCOC(=O)OC(C)OC(=O)[C@@H]1CCCN2CCCC(N[C@@H](CCc3ccccc3)C(=O)OCC)C(=O)N12 (stereo partly shown)",
    "recordedResult": 154
  },
  {
    "compound": "CCOC(=O)[C@H](CCc1ccccc1)NC1CCCN2CCC[C@@H](C(=O)OC(C)OC(=O)CN3CCOCC3)N2C1=O (stereo partly shown)",
    "recordedResult": 132
  },
  {
    "compound": "CCOC(=O)[C@H](CCc1ccccc1)NC1CCCN2CCC[C@@H](C(=O)OC(C)OC(=O)OC(C)C)N2C1=O (stereo partly shown)",
    "recordedResult": 108
  }
]

----------
# protocolNotes: Rate of hydrolysis in porcine skin homogenate at 37° C. (HPLC or HPLC-MS)
# Type: in vitro ADME
# details: pig; porcine skin homogenate, 37° C.
So basically: is half-life under 30 min? Then Met. Not under? Then Not met.

[
  {
    "compound": "CCOC(=O)[C@H](CCc1ccccc1)NC1CCCN2CCC[C@@H](C(=O)OC(C)OC(=O)CN3CCOCC3)N2C1=O (some centres unmarked)",
    "assignedLabel": "Met"
  },
  {
    "compound": "CCOC(=O)[C@H](CCc1ccccc1)NC1CCCN2CCC[C@@H](C(=O)OC(C)OC(=O)OC3CCCCC3)N2C1=O (some centres unmarked)",
    "assignedLabel": "Not met"
  },
  {
    "compound": "CCOC(=O)[C@H](CCc1ccccc1)NC1CCCN2CCC[C@@H](C(=O)OC(C)OC(=O)OC(C)C)N2C1=O (some centres unmarked)",
    "assignedLabel": "Not met"
  },
  {
    "compound": "CCOC(=O)[C@H](CCc1ccccc1)NC1CCCN2CCC[C@@H](C(=O)OC(C)OC(=O)C(C)(C)C)N2C1=O (some centres unmarked)",
    "assignedLabel": "Not met"
  },
  {
    "compound": "CCOC(=O)OC(C)OC(=O)[C@@H]1CCCN2CCCC(N[C@@H](CCc3ccccc3)C(=O)OCC)C(=O)N12 (some centres unmarked)",
    "assignedLabel": "Met"
  },
  {
    "compound": "CCOC(=O)[C@H](CCc1ccccc1)N[C@H]1CCCN2CCC[C@@H](C(=O)O)N2C1=O [cilazapril, reference compound]",
    "assignedLabel": "Not met"
  }
]
